Test: In vivo pharmacokinetic study of BUS with or without WGM in rats
Settings: rat, plasma, po, 30 mg/kg, BUS alone, 30 mg/kg oral, mean ± SD, n = 6
outcome.measure: half-life (min)
Numbers only; they are read as min.

# half-life (compound: O=C1CC2(CCCC2)CC(=O)N1CCCCN1CCN(c2ncccn2)CC1 [BUS, Buspirone] ) is 111
